// data source = paper PMC7522982

# target-or-test-system: PIM3 (Homo sapiens)
readout: pIC50
The meaning of pIC50 here: minus log10 of the concentration in molar units.

Q: Provide measured pIC50 value, entry: COc1ccc2[nH]c3c4[nH]c5ccc(OC)cc5c4c4c(c3c2c1)C(=O)NC4=O
Result: 7.05

====

# target-or-test-system: ROS1 (Homo sapiens, UniProt P08922)
# Sequence (P08922 28-2347): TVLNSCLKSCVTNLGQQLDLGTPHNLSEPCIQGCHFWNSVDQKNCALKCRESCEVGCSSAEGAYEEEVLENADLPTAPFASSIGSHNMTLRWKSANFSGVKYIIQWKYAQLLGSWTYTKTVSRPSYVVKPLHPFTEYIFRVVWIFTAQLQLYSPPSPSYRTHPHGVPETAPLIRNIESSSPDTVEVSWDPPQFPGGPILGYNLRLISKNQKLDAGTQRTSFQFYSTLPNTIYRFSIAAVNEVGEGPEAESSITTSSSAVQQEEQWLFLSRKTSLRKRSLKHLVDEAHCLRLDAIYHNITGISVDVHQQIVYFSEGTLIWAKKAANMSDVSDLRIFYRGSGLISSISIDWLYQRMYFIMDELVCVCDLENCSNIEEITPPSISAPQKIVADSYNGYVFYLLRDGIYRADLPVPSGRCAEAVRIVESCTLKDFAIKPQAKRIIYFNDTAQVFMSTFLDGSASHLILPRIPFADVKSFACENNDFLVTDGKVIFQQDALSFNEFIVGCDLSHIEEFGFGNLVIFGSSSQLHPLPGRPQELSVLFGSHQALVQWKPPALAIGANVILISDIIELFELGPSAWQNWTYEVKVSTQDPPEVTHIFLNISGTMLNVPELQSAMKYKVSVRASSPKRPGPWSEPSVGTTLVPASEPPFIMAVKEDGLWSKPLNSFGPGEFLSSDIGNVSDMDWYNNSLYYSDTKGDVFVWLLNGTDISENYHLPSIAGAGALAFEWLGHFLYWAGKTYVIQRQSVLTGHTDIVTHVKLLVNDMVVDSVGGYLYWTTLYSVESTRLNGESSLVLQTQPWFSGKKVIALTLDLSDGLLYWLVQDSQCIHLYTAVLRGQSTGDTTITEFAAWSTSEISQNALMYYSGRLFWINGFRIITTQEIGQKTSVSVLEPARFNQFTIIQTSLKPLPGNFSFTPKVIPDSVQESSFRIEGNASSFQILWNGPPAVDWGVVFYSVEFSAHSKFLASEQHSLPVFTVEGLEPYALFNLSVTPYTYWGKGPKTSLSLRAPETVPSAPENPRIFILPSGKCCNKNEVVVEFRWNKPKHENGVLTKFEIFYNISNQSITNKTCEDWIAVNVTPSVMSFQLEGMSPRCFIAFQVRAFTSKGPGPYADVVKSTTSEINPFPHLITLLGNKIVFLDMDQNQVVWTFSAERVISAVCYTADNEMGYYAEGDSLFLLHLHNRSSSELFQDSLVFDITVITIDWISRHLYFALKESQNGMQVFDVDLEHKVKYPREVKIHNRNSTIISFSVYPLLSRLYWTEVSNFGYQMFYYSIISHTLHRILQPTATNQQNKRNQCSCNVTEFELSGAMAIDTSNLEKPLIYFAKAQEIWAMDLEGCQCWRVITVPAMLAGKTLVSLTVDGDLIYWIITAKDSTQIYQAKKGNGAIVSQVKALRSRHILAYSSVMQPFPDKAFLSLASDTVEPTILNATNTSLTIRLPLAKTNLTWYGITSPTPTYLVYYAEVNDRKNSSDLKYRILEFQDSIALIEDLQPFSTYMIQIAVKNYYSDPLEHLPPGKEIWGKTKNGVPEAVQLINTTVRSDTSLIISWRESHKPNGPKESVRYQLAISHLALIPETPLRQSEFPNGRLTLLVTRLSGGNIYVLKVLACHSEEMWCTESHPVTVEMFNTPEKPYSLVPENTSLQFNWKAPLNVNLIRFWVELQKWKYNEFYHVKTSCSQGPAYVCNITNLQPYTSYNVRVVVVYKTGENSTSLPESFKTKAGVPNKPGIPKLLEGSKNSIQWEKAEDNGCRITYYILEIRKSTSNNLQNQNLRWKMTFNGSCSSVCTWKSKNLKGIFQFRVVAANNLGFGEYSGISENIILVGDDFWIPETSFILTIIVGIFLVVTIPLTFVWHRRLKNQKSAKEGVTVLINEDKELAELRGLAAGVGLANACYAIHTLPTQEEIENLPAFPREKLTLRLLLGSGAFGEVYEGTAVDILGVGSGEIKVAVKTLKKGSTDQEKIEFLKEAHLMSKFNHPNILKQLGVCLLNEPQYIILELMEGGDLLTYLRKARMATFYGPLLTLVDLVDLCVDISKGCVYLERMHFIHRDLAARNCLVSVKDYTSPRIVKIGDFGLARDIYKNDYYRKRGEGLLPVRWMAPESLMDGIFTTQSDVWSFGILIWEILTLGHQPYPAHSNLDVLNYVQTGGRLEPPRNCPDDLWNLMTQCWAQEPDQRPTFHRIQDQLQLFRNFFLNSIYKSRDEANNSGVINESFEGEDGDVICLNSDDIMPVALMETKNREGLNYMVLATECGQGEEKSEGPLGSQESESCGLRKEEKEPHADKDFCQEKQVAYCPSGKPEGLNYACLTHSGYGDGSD
readout: IC50

Q: Provide measured IC50 value, entry: COc1ccc2[nH]c3c4[nH]c5ccc(OC)cc5c4c4c(c3c2c1)C(=O)NC4=O
Result: > 10 µM

====

# target-or-test-system: MINK1/MINK (Homo sapiens, UniProt Q8N4C8)
# Sequence (Q8N4C8 whole entry): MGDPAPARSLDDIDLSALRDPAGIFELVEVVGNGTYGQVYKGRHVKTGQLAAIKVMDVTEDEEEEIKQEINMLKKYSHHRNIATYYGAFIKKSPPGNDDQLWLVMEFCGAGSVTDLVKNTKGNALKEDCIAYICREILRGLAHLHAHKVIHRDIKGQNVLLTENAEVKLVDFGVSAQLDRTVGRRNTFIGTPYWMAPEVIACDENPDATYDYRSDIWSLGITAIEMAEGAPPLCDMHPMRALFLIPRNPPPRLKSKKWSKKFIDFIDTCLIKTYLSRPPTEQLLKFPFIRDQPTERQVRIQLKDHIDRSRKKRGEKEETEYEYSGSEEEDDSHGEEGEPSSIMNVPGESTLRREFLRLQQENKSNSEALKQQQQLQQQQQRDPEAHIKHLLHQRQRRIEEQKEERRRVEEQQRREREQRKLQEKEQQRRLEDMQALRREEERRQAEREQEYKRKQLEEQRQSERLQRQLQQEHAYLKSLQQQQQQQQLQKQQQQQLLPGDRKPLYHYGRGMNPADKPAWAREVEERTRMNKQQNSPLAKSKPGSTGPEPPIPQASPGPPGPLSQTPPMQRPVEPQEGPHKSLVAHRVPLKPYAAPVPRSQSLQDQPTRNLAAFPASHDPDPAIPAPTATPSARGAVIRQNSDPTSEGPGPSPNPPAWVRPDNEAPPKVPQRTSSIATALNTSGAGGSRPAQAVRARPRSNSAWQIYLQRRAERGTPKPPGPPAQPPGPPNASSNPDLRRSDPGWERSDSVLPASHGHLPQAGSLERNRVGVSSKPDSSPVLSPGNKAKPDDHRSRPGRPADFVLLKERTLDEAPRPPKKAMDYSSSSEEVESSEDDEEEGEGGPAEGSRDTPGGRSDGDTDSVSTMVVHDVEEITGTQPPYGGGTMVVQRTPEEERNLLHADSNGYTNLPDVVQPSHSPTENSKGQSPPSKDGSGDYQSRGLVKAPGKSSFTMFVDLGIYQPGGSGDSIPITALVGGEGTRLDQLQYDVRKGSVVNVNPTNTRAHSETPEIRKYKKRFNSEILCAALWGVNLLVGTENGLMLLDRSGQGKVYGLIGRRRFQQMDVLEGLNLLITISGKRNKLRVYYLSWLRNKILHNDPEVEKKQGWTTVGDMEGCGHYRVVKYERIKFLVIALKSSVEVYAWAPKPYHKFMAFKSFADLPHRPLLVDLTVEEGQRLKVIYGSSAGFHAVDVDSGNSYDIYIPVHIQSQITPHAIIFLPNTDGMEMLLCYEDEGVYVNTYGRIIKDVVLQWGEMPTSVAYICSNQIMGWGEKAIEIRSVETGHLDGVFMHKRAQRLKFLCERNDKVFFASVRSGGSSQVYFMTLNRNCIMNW
# run-description: Eurofins kinase enzymatic radiometric assay
# condition-label: Km of ATP, 9-point curve in duplicate
readout: pIC50
The meaning of pIC50 here: minus log10 of the concentration in molar units.

Q: Provide measured pIC50 value, entry: COc1ccc2[nH]c3c4[nH]c5ccc(OC)cc5c4c4c(c3c2c1)C(=O)NC4=O [GW296115]
Result: 7.46
